Source: paper PMC3871618

Overview of reported inhibition at 30 min across a group of compounds:
target: ABCB1 (Homo sapiens); test: HOE (Hoechst 33342) accumulation in MDCKII-ABCB1 cells; format: cell-based; design: expressed in transfected cells; host or cells: MDCKII (canine kidney) cells transduced with human ABCB1, from Prof; Piet Borst and Dr. Alfred Schinkel (The Netherlands Cancer Institute); conditions: human, probe Hoechst 33342 (HOE), 8 µM, CDKi applied at their respective IC50 concentrations, % as strongly as LY, read-out: Inhibition of HOE efflux relative to LY
Answer with a number only, understood to be in %.

Here are 4 compounds together with their reported answers.
# Compound, Value units, Reported result
records = [
    ("CC[C@H](CO)Nc1nc(NCc2ccccc2)c2ncn(C(C)C)c2n1 [roscovitine]", "%", 57),
    ("CN1CC[C@H](c2c(O)cc(O)c3c(=O)cc(-c4ccccc4Cl)oc23)[C@H](O)C1 [flavopiridol]", "%", 31),
    ("CC[C@H](CO)Nc1nc(NCc2ccccc2O)c2ncn(C(C)C)c2n1 [olomoucine II]", "%", 48),
    ("CC(C)(C)c1cnc(CSc2cnc(NC(=O)C3CCNCC3)s2)o1 [SNS-032]", "%", 23),
]

# context switch: different compound, same inhibition at 30 min
The observed inhibition at 30 min for CC(C)[C@H](CO)Nc1nc(Nc2cccc(Cl)c2)c2ncn(C(C)C)c2n1 [purvalanol A] when tested with ABCB1 (Homo sapiens) stands at 86

* * *

target: ABCB1 transporter (Homo sapiens, UniProt P08183); construct: Piet Borst and Dr. Alfred Schinkel (The Netherlands Cancer Institute); assay: HOE (Hoechst 33342) accumulation in MDCKII-ABCB1 cells; conditions: 8 µM HOE, end-point fluorescence at 30 min, 50% of each compound's own maximum inhibitory activity, read-out: IC50, inhibition of ABCB1-mediated efflux of HOE
Sequence (P08183 whole entry): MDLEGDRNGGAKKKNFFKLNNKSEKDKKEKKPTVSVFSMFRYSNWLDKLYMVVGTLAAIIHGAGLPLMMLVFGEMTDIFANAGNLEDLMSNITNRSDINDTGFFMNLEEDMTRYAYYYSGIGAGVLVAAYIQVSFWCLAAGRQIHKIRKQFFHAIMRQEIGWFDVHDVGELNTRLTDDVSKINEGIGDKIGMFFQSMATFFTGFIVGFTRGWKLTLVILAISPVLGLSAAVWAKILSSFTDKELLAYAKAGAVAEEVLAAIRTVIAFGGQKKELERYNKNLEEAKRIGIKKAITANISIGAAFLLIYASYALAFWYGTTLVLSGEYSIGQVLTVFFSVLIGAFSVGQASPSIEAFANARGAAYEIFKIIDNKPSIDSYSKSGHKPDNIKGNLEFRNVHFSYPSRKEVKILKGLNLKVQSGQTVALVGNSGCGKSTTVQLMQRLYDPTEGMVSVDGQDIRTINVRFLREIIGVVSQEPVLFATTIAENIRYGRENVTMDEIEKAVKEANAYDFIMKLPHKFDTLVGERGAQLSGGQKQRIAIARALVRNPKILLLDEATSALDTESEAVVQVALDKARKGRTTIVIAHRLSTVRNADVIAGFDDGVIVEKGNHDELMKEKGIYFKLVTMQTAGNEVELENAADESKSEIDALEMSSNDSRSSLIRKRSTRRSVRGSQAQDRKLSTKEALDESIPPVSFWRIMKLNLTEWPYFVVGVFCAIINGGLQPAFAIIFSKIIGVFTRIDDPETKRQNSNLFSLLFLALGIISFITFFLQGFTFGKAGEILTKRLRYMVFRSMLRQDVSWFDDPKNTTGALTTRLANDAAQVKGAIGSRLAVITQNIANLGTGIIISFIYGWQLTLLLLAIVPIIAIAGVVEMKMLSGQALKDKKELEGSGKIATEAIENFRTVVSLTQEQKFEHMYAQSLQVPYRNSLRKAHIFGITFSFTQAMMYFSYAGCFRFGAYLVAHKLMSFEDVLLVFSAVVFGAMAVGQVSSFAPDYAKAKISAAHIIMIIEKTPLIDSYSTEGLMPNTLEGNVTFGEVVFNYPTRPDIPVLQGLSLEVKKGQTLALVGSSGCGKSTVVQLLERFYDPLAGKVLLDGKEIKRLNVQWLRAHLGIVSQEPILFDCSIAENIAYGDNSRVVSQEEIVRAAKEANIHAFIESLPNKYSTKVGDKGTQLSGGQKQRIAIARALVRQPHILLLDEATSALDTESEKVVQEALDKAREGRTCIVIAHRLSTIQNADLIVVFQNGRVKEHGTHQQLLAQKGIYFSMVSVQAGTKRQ
Decision: IC50 beneath 10 µM gives True; IC50 meeting or exceeding 10 µM gives False.

Some entries whose results are on file:
# Compound, Classification
records = [
    ("CC[C@H](CO)Nc1nc(NCc2ccccc2)c2ncn(C(C)C)c2n1 [roscovitine]", "False"),
    ("CC(C)[C@H](CO)Nc1nc(Nc2cccc(Cl)c2)c2ncn(C(C)C)c2n1 [purvalanol A]", "False"),
    ("CN1CC[C@H](c2c(O)cc(O)c3c(=O)cc(-c4ccccc4Cl)oc23)[C@H](O)C1 [flavopiridol]", "False"),
    ("CC(C)(C)c1cnc(CSc2cnc(NC(=O)C3CCNCC3)s2)o1 [SNS-032]", "False"),
]

Okay, next one:
Prompt line: Please determine if CC[C@H](CO)Nc1nc(NCc2ccccc2O)c2ncn(C(C)C)c2n1 [olomoucine II] is below 10 µM in terms of IC50.
Response line: True

* * *

target: ABCB1 (Homo sapiens, UniProt P08183); test: ABCB1-ATPase activation assay (baseline), Sf9 membranes; format: biochemical; set-up: purchased Solvo Biotechnology (Szeged, Hungary); host or cells: Sf9 insect cell membranes; settings: from ATPase activity in Sf9 membranes overexpressing human ABCB1
Sequence (P08183 whole entry): as above
Measured parameter: ABCB1 substrate classification

# Compound, Reported result
measured = [
    ("CN1CC[C@H](c2c(O)cc(O)c3c(=O)cc(-c4ccccc4Cl)oc23)[C@H](O)C1 [flavopiridol]", "non-substrates of ABCB1"),
    ("CC(C)(C)c1cnc(CSc2cnc(NC(=O)C3CCNCC3)s2)o1 [SNS-032]", "non-substrates of ABCB1"),
    ("CC(C)[C@H](CO)Nc1nc(Nc2cccc(Cl)c2)c2ncn(C(C)C)c2n1 [purvalanol A]", "non-substrates of ABCB1"),
]
